molecular target: human EphB2-His ectodomain - human EphrinB2-Fc ectodomain (EphB2-EphrinB2 tetramer) (Homo sapiens, UniProt P29323+P52799); assay: biochemical
Sequence (P52799 28-229): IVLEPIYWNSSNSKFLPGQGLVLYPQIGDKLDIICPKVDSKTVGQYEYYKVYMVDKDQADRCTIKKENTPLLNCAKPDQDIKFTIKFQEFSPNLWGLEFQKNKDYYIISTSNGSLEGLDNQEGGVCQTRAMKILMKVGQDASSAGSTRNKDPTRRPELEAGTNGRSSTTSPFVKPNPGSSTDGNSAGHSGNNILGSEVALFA
Sequence (P29323 19-543): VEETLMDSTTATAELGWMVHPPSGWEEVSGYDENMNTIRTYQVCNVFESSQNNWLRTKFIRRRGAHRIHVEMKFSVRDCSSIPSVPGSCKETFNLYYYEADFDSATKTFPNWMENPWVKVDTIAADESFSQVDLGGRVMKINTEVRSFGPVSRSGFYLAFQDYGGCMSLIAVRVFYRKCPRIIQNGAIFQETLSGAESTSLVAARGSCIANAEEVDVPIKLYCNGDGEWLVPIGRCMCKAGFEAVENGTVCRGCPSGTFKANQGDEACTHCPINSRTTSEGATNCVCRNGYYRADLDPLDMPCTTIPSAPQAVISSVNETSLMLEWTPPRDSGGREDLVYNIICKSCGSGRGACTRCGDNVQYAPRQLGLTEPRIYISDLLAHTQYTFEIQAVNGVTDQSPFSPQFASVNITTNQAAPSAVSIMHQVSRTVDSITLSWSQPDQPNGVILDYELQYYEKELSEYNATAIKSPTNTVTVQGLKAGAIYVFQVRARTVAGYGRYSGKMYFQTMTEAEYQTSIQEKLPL
RESULT_TYPE: IC50

Quick check: IC50 of O=C(O)[C@@H](S)[C@@H](S)C(=O)O [compound 8, Succimer] ? ~50 µM

---

molecular target: human EphB2-His ectodomain - human EphrinB2-Fc ectodomain (EphB2-EphrinB2 tetramer) (Homo sapiens, UniProt P29323+P52799); experiment: biochemical
pIC50: −log10 of the molar value.
RESULT_TYPE: pIC50

Quick check: pIC50 of `Oc1ccc(Cl)c2cccnc12` ? ~5.49

---

target: human EphB2-His ectodomain - human EphrinB2-Fc ectodomain (EphB2-EphrinB2 tetramer) (Homo sapiens, UniProt P29323+P52799); assay: biochemical
Structures can show the parent of a compound that is named as a salt.
RESULT_TYPE: IC50

Quick check: IC50 of O=C(O)CN(CCOCCOCCN(CC(=O)O)CC(=O)O)CC(=O)O [compound 2, EGTA sodium salt] ? > 3.2 µM

---

A collection of compounds and their measured IC50
biological target: human EphB2-His ectodomain - human EphrinB2-Fc ectodomain (EphB2-EphrinB2 tetramer) (Homo sapiens, UniProt P29323+P52799); experiment: biochemical; settings: EphrinB2-EphB2 IC50 (Absolute, µM)
Where a name gives a salt, the structure may show the parent alone.

COMPOUND	IC50
CC(=O)Nc1ccc(N2CCN(Cc3ccc(O)c4ncccc34)CC2)cc1 [QPA-Ac]	> 3.2 µM
Oc1ccc(CN2CCN(c3ccc(Br)cc3)CC2)c2cccnc12 [QPB4 . 2 HCl]	> 1.6 µM
OCc1ccc2c(CN3CCOCC3)cc(Br)c(O)c2n1 [2OH-A20]	> 3.2 µM
O=S1(=O)CCN(Cc2ccc(O)c3ncccc23)CC1 [QTM . 2 HCl]	> 1.6 µM
O=[N+]([O-])c1cc(CN2CCS(=O)(=O)CC2)c2cccnc2c1O [QTM-NO2]	> 3.2 µM

Quick check: IC50 of Cc1ccc2c(CN3CCN(c4ccc(Br)cc4)CC3)ccc(O)c2n1 [2-MeQPB4 . 2 HCl] ? > 1.6 µM

Quick check: IC50 of Oc1ccc(CN2CCOCC2)c2cccnc12 [A19 . 2 HCl] ? > 6.4 µM

Quick check: IC50 of Oc1c(I)cc(CN2CCOCC2)c2cccnc12 [A20-I] ? > 1.6 µM

Quick check: IC50 of Oc1ccc(CN2CCN(c3ccc(Br)cn3)CC2)c2cccnc12 [QPP. 2 HCl] ? > 3.2 µM

Quick check: IC50 of Oc1c(Br)cc(CN2CCN(Cc3ccc(Br)cc3)CC2)c2cccnc12 [BQPB4-Bn] ? > 3.2 µM

---

biological target: human EphB2-His ectodomain - human EphrinB2-Fc ectodomain (EphB2-EphrinB2 tetramer) (Homo sapiens, UniProt P29323+P52799); assay: biochemical; settings: Octet IC50 data EB2-EphB2 (Absolute)
RESULT_TYPE: IC50 (nM)
Field format: number, assumed nM, no unit text.

// known answers, use as guide
MOLECULE	UNITS_LABEL	IC50
Clc1cc2c(c3ncccc13)OCN(C1CCCC1)C2 [1b]	nM	1380
Clc1cc2c(c3ncccc13)OCN(CCc1ccccc1)C2 [compound 11]	nM	1150

Quick check: IC50 of CC1(C)CC(N2COc3c(cc(Cl)c4cccnc34)C2)CC(C)(C)N1 [compound 5] ? 1740

Quick check: IC50 of CC(C)(C)N1COc2c(cc(Cl)c3cccnc23)C1 [compound 3] ? 1950

Quick check: IC50 of Clc1cc2c(c3ncccc13)OCN(C1CCCC1)C2 [1c] ? 850

Quick check: IC50 of Clc1cc2c(c3ncccc13)OCN(CC1CCCO1)C2 (stereo not shown) [4a] ? 810

Quick check: IC50 of CCCCN1COc2c(cc(Cl)c3cccnc23)C1 [compound 8] ? 1150

---

target: human EphB2-His ectodomain - human EphrinB2-Fc ectodomain (EphB2-EphrinB2 tetramer) (Homo sapiens, UniProt P29323+P52799); experiment: biochemical
pIC50: −log10 of the molar value.
A collection of compounds and their measured pIC50

COMPOUND	pIC50
CCOc1cc(C(Nc2cc(C)ccn2)c2ccc3cccnc3c2O)ccc1O (centres unmarked) [SW039498]	< 5.49

Quick check: pIC50 of Cc1ccnc(NC(c2cccc([N+](=O)[O-])c2)c2ccc3cccnc3c2O)c1 (centres unmarked) [SW039339] ? < 5.49

---

molecular target: human EphB2-His ectodomain - human EphrinB2-Fc ectodomain (EphB2-EphrinB2 tetramer) (Homo sapiens, UniProt P29323+P52799); assay: biochemical; settings: Octet IC50 data EB2-EphB2 (Relative)
A collection of molecules and their measured IC50
Field format: number, assumed nM, no unit text.

// known answers, use as guide
MOLECULE	RESULT_TYPE	TEST_RESULT
CCCCN1COc2c(cc(Cl)c3cccnc23)C1 [compound 8]	IC50	1050
Clc1cc2c(c3ncccc13)OCN(CC1CCCO1)C2 (stereo not shown) [4a]	IC50	720
CC(c1ccccc1)N1COc2c(cc(Cl)c3cccnc23)C1 (stereo not shown) [compound 10]	IC50	740
Clc1cc2c(c3ncccc13)OCN(CCc1ccccc1)C2 [compound 11]	IC50	1070

Quick check: IC50 of Clc1cc2c(c3ncccc13)OCN(C1CCCC1)C2 [1c] ? 760

Quick check: IC50 of Clc1cc2c(c3ncccc13)OCN(CCC1=CCCCC1)C2 [compound 12] ? 590

Quick check: IC50 of CC(C)(C)N1COc2c(cc(Cl)c3cccnc23)C1 [compound 3] ? 1780

Quick check: IC50 of CC1(C)CC(N2COc3c(cc(Cl)c4cccnc34)C2)CC(C)(C)N1 [compound 5] ? 1150

Quick check: IC50 of Clc1cc2c(c3ncccc13)OCN(C1CCCC1)C2 [1b] ? 1200

Quick check: IC50 of Clc1cc2c(c3ncccc13)OCN(Cc1cccnc1)C2 [compound 2] ? 740

---

molecular target: human EphB2-His ectodomain - human EphrinB2-Fc ectodomain (EphB2-EphrinB2 tetramer) (Homo sapiens, UniProt P29323+P52799); test: biochemical
pIC50: −log10 of the molar value. Where a name gives a salt, the structure may show the parent alone.
A collection of compounds and their measured pIC50

COMPOUND	pIC50
O=C(O)CN(CCOCCOCCN(CC(=O)O)CC(=O)O)CC(=O)O [compound 2, EGTA sodium salt]	< 5.49

Turning to the following compound.
Quick check: pIC50 of Oc1ccc(Cl)c2cccnc12 [compound 3, Cloxiquine] ? < 5.49

---

biological target: human EphB2-His ectodomain - human EphrinB2-Fc ectodomain (EphB2-EphrinB2 tetramer) (Homo sapiens, UniProt P29323+P52799); assay: biochemical
Sequence (P29323 19-543): as above
Sequence (P52799 28-229): as the sequence (P52799 28-229) above
RESULT_TYPE: IC50 (nM)
Field format: number, assumed nM, no unit text.

Quick check: IC50 of `Oc1c(Br)cc(CN2CCN(c3ccc(Br)cc3)CC2)c2cccnc12` ? 280

---

A collection of compounds and their measured IC50
molecular target: human EphB2-His ectodomain - human EphrinB2-Fc ectodomain (EphB2-EphrinB2 tetramer) (Homo sapiens, UniProt P29323+P52799); assay: biochemical; conditions: EphrinB2-EphB2 IC50 (Absolute, µM)
Where a name gives a salt, the structure may show the parent alone.

// known answers, use as guide
COMPOUND	IC50
O=C(Cc1ccccc1)Nc1ccc(N2CCN(Cc3cc(Br)c(O)c4ncccc34)CC2)cc1	> 3.2 µM
O=[N+]([O-])c1cc(CN2CCOCC2)c2cccnc2c1O [A19-NO2]	> 3.2 µM
COc1ccc2[nH]cc(C(=O)N3CCN(c4ccccc4OC)CC3)c2c1	> 1.6 µM
Oc1ccc(CN2CCN(Cc3ccc(C(F)(F)F)cc3)CC2)c2cccnc12	> 1.6 µM
Oc1ccc(CN2CCOCC2)c2cccnc12 [A19, 5-(morpholinomethyl)quinolin-8-ol]	> 1.6 µM
Cc1ccc2c(CN3CCN(c4ccc(Br)cc4)CC3)ccc(O)c2n1 [2-MeQPB4]	> 3.2 µM

Quick check: IC50 of Oc1ccc(CN2CCN(c3ccccc3)CC2)c2cccnc12 [QPPh] ? > 3.2 µM

Quick check: IC50 of O=[N+]([O-])c1cc(CN2CCOCC2)c2cccnc2c1O [A19-NO2 . 2 HCl] ? > 1.6 µM

Quick check: IC50 of `COc1ccc2[nH]cc(C(=O)N3CCOCC3)c2c1` ? > 3.2 µM

---

target: human EphB2-His ectodomain - human EphrinB2-Fc ectodomain (EphB2-EphrinB2 tetramer) (Homo sapiens, UniProt P29323+P52799); experiment: biochemical; conditions: EphrinB2-EphB2 IC50 (Relative, µM)
A collection of molecules and their measured IC50

// known answers, use as guide
MOLECULE	RESULT_TYPE	TEST_RESULT
O=[N+]([O-])c1cc(CN2CCOCC2)c2cccnc2c1O [A19-NO2]	IC50	> 3.2 µM
COc1ccc2[nH]cc(C(=O)N3CCN(c4ccc(Br)cc4)CC3)c2c1	IC50	> 1.6 µM

Turning to the following molecule.
Quick check: IC50 of `COc1ccc2[nH]cc(C(=O)N3CCOCC3)c2c1` ? > 3.2 µM
